FYI, the data here is from PubChem BioAssay.

# system: Dickkopf-related protein 1 (Homo sapiens)
# protocolSummary: DKK1 binders on small-molecule microarrays, primary screen, biochemical, small-molecule microarray, 635 nm fluorescence scan (AID 1106);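 note: score merges emission near 667 nm with signal to noise over three replicate slides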
# appliedConditions: DKK1 binding, higher = more signal
recordedEndpoint: composite z-score

>  <compound>
COc1ccc([Si](C)(C)[C@@H]2[C@@H](CC(=O)N(CCO)Cc3ccccc3)O[C@]3(C(=O)N(Cc4cccc(N5CCC5=O)c4)c4ccccc43)[C@H]2C)cc1

>  <recordedEndpoint>
composite z-score

>  <result>
0.313

$$$$
>  <compound>
O=C(NCC(F)(F)F)[C@@H]1c2ccccc2C(=O)N(Cc2ccccc2Cl)[C@H]1c1ccc(CO)cc1

>  <recordedEndpoint>
composite z-score

>  <result>
-0.941

$$$$
>  <compound>
CO[C@]12C=C(Br)[C@@H](C[C@@H]1c1ccccc1)[C@@]1(CO1)C2=O

>  <recordedEndpoint>
composite z-score

>  <result>
0.791

$$$$
